Sourced from patent US20260042755A1

SYSTEM UNDER TEST: GPR3 (Homo sapiens, UniProt P46089)
Construct: expressed in transfected cells; host or cells: CHO cells
Sequence (P46089 whole entry, species assumed): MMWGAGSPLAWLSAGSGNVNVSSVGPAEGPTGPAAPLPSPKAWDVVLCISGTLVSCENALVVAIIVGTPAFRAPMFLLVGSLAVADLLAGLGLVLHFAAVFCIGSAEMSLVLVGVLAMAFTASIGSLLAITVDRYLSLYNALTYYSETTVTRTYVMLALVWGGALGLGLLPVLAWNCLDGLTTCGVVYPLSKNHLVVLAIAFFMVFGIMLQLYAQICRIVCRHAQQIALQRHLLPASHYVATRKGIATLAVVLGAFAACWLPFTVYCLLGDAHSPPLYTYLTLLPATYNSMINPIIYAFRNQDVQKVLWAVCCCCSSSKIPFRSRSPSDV
PROTOCOL SUMMARY: GPR3 antagonist functional cAMP assay (LANCE Ultra cAMP TR-FRET, CHO cells stably expressing GPR3)
Assay type: cell-based
EXPERIMENTAL PARAMETERS: CHO cells stably expressing GPR3, cAMP assay (Example 24)
pIC50: −log10 of the molar value.
MEASURED PARAMETER: pIC50

COMPOUND: COc1cccnc1-c1nc2c(nc1N1CCC(Oc3ccc(F)cc3F)CC1)CCN(C(C)=O)C2
SYSTEM UNDER TEST: GPR3 (Homo sapiens, UniProt P46089)
MEASURED PARAMETER: pIC50
OBS VALUE: 4.52 to 6.00
--
COMPOUND: N#CCN1CCc2nc(N3CCC(Oc4ccc(F)cc4F)CC3)c(-c3cnn(C4CCCCO4)c3)nc2C1 (stereo not shown)
SYSTEM UNDER TEST: GPR3 (Homo sapiens, UniProt P46089)
MEASURED PARAMETER: pIC50
OBS VALUE: 4.52 to 6.00
--
COMPOUND: CC(=O)N1CCc2nc(N3CCC(Oc4ccc(F)cc4F)CC3)c(-c3cnn(C(C)C)c3)nc2C1
SYSTEM UNDER TEST: GPR3 (Homo sapiens, UniProt P46089)
MEASURED PARAMETER: pIC50
OBS VALUE: 4.52 to 6.00
--
COMPOUND: CC(=O)N1CCc2nc(N3CCC(Oc4ccc(F)cc4F)CC3)c(-c3cnn(C4CC4)c3)nc2C1
SYSTEM UNDER TEST: GPR3 (Homo sapiens, UniProt P46089)
MEASURED PARAMETER: pIC50
OBS VALUE: 4.52 to 6.00
--
COMPOUND: COCn1ccnc1-c1nc2c(nc1N1CCC(Oc3ccc(F)cc3F)CC1)CCN(C(C)=O)C2
SYSTEM UNDER TEST: GPR3 (Homo sapiens, UniProt P46089)
MEASURED PARAMETER: pIC50
OBS VALUE: 4.52 to 6.00
--
COMPOUND: Clc1ccc(Cl)c(CN2CCN(c3nc4cnccc4nc3-c3ncc[nH]3)CC2)c1
SYSTEM UNDER TEST: GPR3 (Homo sapiens, UniProt P46089)
MEASURED PARAMETER: pIC50
OBS VALUE: 6.00 to 7.00
--
COMPOUND: CC(=O)N1CCc2nc(N3CCC(Oc4ccc(F)cc4F)CC3)c(-c3cnn4c3CN(C(C)=O)CC4)nc2C1
SYSTEM UNDER TEST: GPR3 (Homo sapiens, UniProt P46089)
MEASURED PARAMETER: pIC50
OBS VALUE: 4.52 to 6.00
--
COMPOUND: COC(=O)c1cc2nc(N3CCC(Oc4ccc(F)cc4F)CC3)c(-c3cncc(OC)n3)nc2cn1
SYSTEM UNDER TEST: GPR3 (Homo sapiens, UniProt P46089)
MEASURED PARAMETER: pIC50
OBS VALUE: 4.52 to 6.00
--
COMPOUND: Cn1cc(-c2nc3cnccc3nc2N2CCN(CC3CCCOC3)CC2)cn1 (stereo not shown)
SYSTEM UNDER TEST: GPR3 (Homo sapiens, UniProt P46089)
MEASURED PARAMETER: pIC50
OBS VALUE: ≤ 4.52
--
COMPOUND: Cn1cc(-c2nc3cnc(C(O)C4CC4)cc3nc2N2CCC(Oc3ccc(F)cc3F)CC2)cn1 (stereo not shown)
SYSTEM UNDER TEST: GPR3 (Homo sapiens, UniProt P46089)
MEASURED PARAMETER: pIC50
OBS VALUE: 4.52 to 6.00
--
COMPOUND: CNC(=O)CN1CCc2nc(N3CCC(Oc4ccc(F)cc4F)CC3)c(-c3cn[nH]c3)nc2C1
SYSTEM UNDER TEST: GPR3 (Homo sapiens, UniProt P46089)
MEASURED PARAMETER: pIC50
OBS VALUE: 4.52 to 6.00
--
COMPOUND: COCC1(Oc2ccc(F)cc2F)CCN(c2nc3ccncc3nc2-c2cn[nH]c2)CC1
SYSTEM UNDER TEST: GPR3 (Homo sapiens, UniProt P46089)
MEASURED PARAMETER: pIC50
OBS VALUE: 6.00 to 7.00
--
COMPOUND: CC(=O)N1CCc2nc(N3CCC(Oc4ccc(F)cc4F)CC3)c(-c3cnn(CF)c3)nc2C1
SYSTEM UNDER TEST: GPR3 (Homo sapiens, UniProt P46089)
MEASURED PARAMETER: pIC50
OBS VALUE: 4.52 to 6.00
--
COMPOUND: CNc1cc2nc(N3CCC(Oc4ccc(F)cc4F)CC3)c(-c3cnn(C)c3)nc2cn1
SYSTEM UNDER TEST: GPR3 (Homo sapiens, UniProt P46089)
MEASURED PARAMETER: pIC50
OBS VALUE: 4.52 to 6.00
--
COMPOUND: C[C@H]1CN(Cc2ccc(F)cc2F)CCN1c1nc2ccncc2nc1-c1cnn(C)c1 (single isomer, unassigned)
SYSTEM UNDER TEST: GPR3 (Homo sapiens, UniProt P46089)
MEASURED PARAMETER: pIC50
OBS VALUE: 4.52 to 6.00
--
COMPOUND: CC(=O)N1CCC=C(c2nc3c(nc2N2CCC(Oc4ccc(F)cc4F)CC2)CCN(C(C)=O)C3)C1
SYSTEM UNDER TEST: GPR3 (Homo sapiens, UniProt P46089)
MEASURED PARAMETER: pIC50
OBS VALUE: 4.52 to 6.00
